Target: GLRA3
Assay: pooled miR-30 sensor sort-seq; sequence = guide strand; note: reference of the scale not given here
Details: shRNA
Give measured sensor-assay potency score (higher = more potent) for each item. Keep answers brief.
# answer = number (no unit)

stdin: Suppose we examine the sequence TATTCTTTCTCTTTCGTCGAAA ; what sensor-assay potency score (higher = more potent) value has been reported?
stdout: -0.712

stdin: What sensor-assay potency score (higher = more potent) value was documented for this sequence, TAGGCTGTGAAGCTGAATCGGC ?
stdout: -0.0399

stdin: Which sensor-assay potency score (higher = more potent) is listed for TAGCATTGAATTACAAATCAAG ?
stdout: -1.08

stdin: Query (sequence): TAACATATAAACACATTGGCAG ; field requested: sensor-assay potency score (higher = more potent)
stdout: -0.00869

----------
Molecular target: CACNA1S
Test: pooled miR-30 sensor sort-seq; sequence = guide strand
Details: shRNA
Would you kindly list sensor-assay potency score (higher = more potent) for each of these sequences?
# output: bare number, no unit

stdin: Requested field: sensor-assay potency score (higher = more potent). Item: TTGATCAGCCTCATGACACGGA
stdout: 0.698

stdin: Given the entry TTGTCGAAGTGGAAGTCGCTGT , report its measured sensor-assay potency score (higher = more potent).
stdout: -0.229

stdin: Given the entry TTGATCTTGAGTGCCGTGCGGA , report its measured sensor-assay potency score (higher = more potent).
stdout: -0.578

stdin: May I ask what sensor-assay potency score (higher = more potent) has been recorded for TCTAGTTGCTGCTTCTCCCGGA ?
stdout: 0.563

stdin: State the recorded sensor-assay potency score (higher = more potent) for this entry: TTGGTGATCTTGAAGATCCTCA
stdout: 0.453

stdin: I am curious: what sensor-assay potency score (higher = more potent) value has been reported for TAGTATGCAAAGTTGGTGCCAC ?
stdout: 0.194

stdin: Record request: sensor-assay potency score (higher = more potent) value, item TTGAGGTCCAGTCTTCCCCTGT
stdout: -0.528

stdin: Entry TTGAGGATCATCTCCAGGGTGA : reported sensor-assay potency score (higher = more potent) = ?
stdout: -0.175

stdin: Param item = TACATCTTCATCAGCATCTCAG ; retrieve measured sensor-assay potency score (higher = more potent).
stdout: -0.408

stdin: // returns reported sensor-assay potency score (higher = more potent) for input TTGGACAAGTCGGTGCACCTGA
stdout: 0.00785

stdin: Reported sensor-assay potency score (higher = more potent) for TTTAAGGATCTGATTTCTCATG : what is it?
stdout: -1.14

stdin: What measured sensor-assay potency score (higher = more potent) goes with TTACCTTCCGTCTTGATCTTGA ?
stdout: 0.578

stdin: // returns reported sensor-assay potency score (higher = more potent) for input TAGTAGTATGCAAAGTTGGTGC
stdout: -0.181

----------
Target: ARHGAP5
Experiment: pooled miR-30 sensor sort-seq; sequence = guide strand
Settings: shRNA
What sensor-assay potency score (higher = more potent) was measured for each of the following?
Response field accepts a number only; no unit should be typed.

stdin: Query (sequence): TTTTTGTCCAAATCCAGCCTGT ; field requested: sensor-assay potency score (higher = more potent)
stdout: -0.169

stdin: Please look up its sensor-assay potency score (higher = more potent): TTTAGTTATCTACACCGACTGC
stdout: -0.686

stdin: I am curious: what sensor-assay potency score (higher = more potent) value has been reported for TTGCACAACATTATCAACTCAC ?
stdout: 0.731

stdin: Item under review: TTTGAATATTGTCTTGGTCAGT . Reported sensor-assay potency score (higher = more potent)?
stdout: -0.551

stdin: What value of sensor-assay potency score (higher = more potent) has been recorded for this entry: TTTCTTTCAAACAACATCCCAA
stdout: 0.179

stdin: Endpoint output: sensor-assay potency score (higher = more potent) of TTGCTTTTTGTCCAAATCCAGC . Value?
stdout: -1.64

stdin: What value of sensor-assay potency score (higher = more potent) has been reported for the following sequence? TTCTACAACAAATTTCATGTTT
stdout: -0.238

stdin: Can you share its sensor-assay potency score (higher = more potent)? I mean this sequence: TAGATTGATATTATGATCTTGA
stdout: 1.05

----------
Molecular target: STUB1
Assay: pooled miR-30 sensor sort-seq; sequence = guide strand
Details: shRNA
Observable: sensor-assay potency score (higher = more potent)
Quick one: just the number, no unit, thanks!

stdin: Quick check: sensor-assay potency score (higher = more potent) of TTGCGGTCGTAGGTGATGCCAC ?
stdout: -0.555

stdin: // returns reported sensor-assay potency score (higher = more potent) for input TGCTCCTCGATGTCCTTGCGGT
stdout: -0.704

stdin: Param item = TTGCCACACAGGTAGTCGGGGA ; retrieve measured sensor-assay potency score (higher = more potent).
stdout: -0.252

stdin: GET /values?readout=sensor-assay potency score (higher = more potent)&item= TAATACACGGCCACCAGCGGGT
stdout: -0.893

stdin: Please look up its sensor-assay potency score (higher = more potent): ATAGCTCTCCATCTCCAGCTGG
stdout: -0.665

stdin: Fill blank: measured sensor-assay potency score (higher = more potent) of the sequence TTGAGCTCCTGCGCGCTCGGGC is ____.
stdout: -0.67

stdin: Name the recorded sensor-assay potency score (higher = more potent) for TAGCTCTCCATCTCCAGCTGGC .
stdout: -0.433

stdin: If you can, please state the reported sensor-assay potency score (higher = more potent) value of TTCGCGATTCGAAGAGCGCTGG .
stdout: -0.358

----------
Exercise: for every item that follows, state its recorded sensor-assay potency score (higher = more potent).
Target: TCEAL1
Assay: pooled miR-30 sensor sort-seq; sequence = guide strand
Conditions: shRNA
Just the number.

stdin: Would you kindly share the measured sensor-assay potency score (higher = more potent) for AAAGCTTCCTTCTTCAAGCTTA ?
stdout: 0.373

stdin: Requested field: sensor-assay potency score (higher = more potent). Item: TCATCTCTTCTAGCTCATCTGC
stdout: -1.12

stdin: Suppose we examine the sequence TTTTCATCTCTTCTAGCTCATC ; what sensor-assay potency score (higher = more potent) value has been reported?
stdout: -1.39

stdin: Consider the sequence shown here: ATTATCATCAGTTTGTTTCTTA What is its recorded sensor-assay potency score (higher = more potent)?
stdout: 0.834

stdin: Requested read-out: sensor-assay potency score (higher = more potent). Entry: ATCAGTTTGTTTCTTACTCTTT
stdout: -0.801

stdin: Tell me the measured sensor-assay potency score (higher = more potent) of TTACTCTTTTCATCTCTTCTAG , please.
stdout: -0.0336

stdin: Which sensor-assay potency score (higher = more potent) value is on record for TGTATCATCTCCTCATTGCTTA ?
stdout: 0.297

stdin: Need sensor-assay potency score (higher = more potent), item TTCTAGCTCATCTGCTGCCTGT
stdout: -0.542

stdin: Would you kindly share the measured sensor-assay potency score (higher = more potent) for TTCGGGAGAGTGCTCCACCGGA ?
stdout: -1.49

----------
Biological target: SULT6B1
Test: pooled miR-30 sensor sort-seq; sequence = guide strand
Details: shRNA
Kindly state sensor-assay potency score (higher = more potent) for each of the entries shown.
Number, no unit, nothing else.

stdin: Any idea what sensor-assay potency score (higher = more potent) was measured for TAATTTGTCATAGTGGAGGTGA ?
stdout: 0.271

stdin: I would be grateful if you could share the reported sensor-assay potency score (higher = more potent) for TAATATGAACTTAACATTGTCG .
stdout: 0.349

stdin: What does the record list as sensor-assay potency score (higher = more potent) for TGAACTTAACATTGTCGCCATC ?
stdout: -1.22

stdin: What measured sensor-assay potency score (higher = more potent) goes with TATGAACTTAACATTGTCGCCA ?
stdout: 0.543

stdin: Could you tell me which sensor-assay potency score (higher = more potent) is on file for TGGAATATCGGGGACATCGTTG ?
stdout: -1.15

stdin: Fill in: sensor-assay potency score (higher = more potent) of TATTAATTCACTGACAATGTGG is ___
stdout: -0.366

stdin: What value of sensor-assay potency score (higher = more potent) has been reported for the following sequence? TTATTCTCGAAGATAGACCCAG
stdout: -0.349

stdin: Give its sensor-assay potency score (higher = more potent) value. Item: TACTGCTGTATCTTTAGGGTTT
stdout: -0.446

----------
Target: TCTN3
Experiment: pooled miR-30 sensor sort-seq; sequence = guide strand
Settings: shRNA
Provide the recorded sensor-assay potency score (higher = more potent) for the entries that follow.
Please reply with the value in numeric form only.

stdin: Requested read-out: sensor-assay potency score (higher = more potent). Entry: TTTATAGCTGAAATGCTGCAGT
stdout: 0.223

stdin: Look up sensor-assay potency score (higher = more potent): TGTAACTTGCTGAGAATCCTGT
stdout: 0.381

stdin: Suppose we examine the sequence TTGAAGTGAATGATTCGCCTCC ; what sensor-assay potency score (higher = more potent) value has been reported?
stdout: 0.789

stdin: Please look up its sensor-assay potency score (higher = more potent): TATAGGAATCGAACTCCTGATA
stdout: -0.82

stdin: Requested field: sensor-assay potency score (higher = more potent). Item: TTTTACTCTCTAGGAAACCTGC
stdout: -1.11

stdin: Look at this sequence and give its reported sensor-assay potency score (higher = more potent). TATATCATCAGTCAGAGCCAAG
stdout: -1.46
